# tested_on: human P2X3 receptor (Homo sapiens (Human))
# Sequence (P56373 whole entry): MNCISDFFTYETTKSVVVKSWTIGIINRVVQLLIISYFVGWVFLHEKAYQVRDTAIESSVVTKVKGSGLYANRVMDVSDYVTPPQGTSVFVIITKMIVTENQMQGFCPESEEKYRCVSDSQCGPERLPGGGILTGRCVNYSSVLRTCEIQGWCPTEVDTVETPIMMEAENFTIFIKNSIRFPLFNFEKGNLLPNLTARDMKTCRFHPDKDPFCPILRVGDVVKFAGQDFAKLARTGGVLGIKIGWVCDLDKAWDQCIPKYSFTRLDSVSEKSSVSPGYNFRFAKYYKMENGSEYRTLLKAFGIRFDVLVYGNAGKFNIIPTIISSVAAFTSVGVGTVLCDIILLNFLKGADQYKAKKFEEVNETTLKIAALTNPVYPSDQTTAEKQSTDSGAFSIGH
# protocol_summary: Intracellular calcium measurement (FLIPR, Fluo-4) of antagonist activity at human P2X3 receptors
# Type: cell-based
# condition_description: human P2X3, FLIPR calcium assay, agonist α,β-Me-ATP; read-out: hP2X3 IC50
endpoint_label: IC50 (nM)

INSERT INTO results (compound, reported_value) VALUES
  ('Cc1cnc(-c2cc(O[C@@H]3CCOC3)cc(C(=O)N[C@H](C)c3ccc(Cl)cn3)c2)s1', 6),
  ('Cc1cnc(-c2cc(OC[C@@]3(F)CCCNC3)cc(C(=O)N[C@H](C)c3cnc(C(F)(F)F)nc3)c2)s1', 25),
  ('CCc1cnc(-c2cc(O[C@@H]3CCOC3)cc(C(=O)N[C@H](C)c3ccc(C)nn3)c2)s1', 12),
  ('COC(=O)N1CCC(Oc2cc(C(=O)N[C@H](C)c3cnc(C(F)(F)F)nc3)cc(-c3ncc(C)s3)c2)CC1', 6),
  ('CCc1cnc(-c2cc(OC[C@H]3CN(C)CCO3)cc(C(=O)N[C@H](C)c3ccc(C(F)(F)F)nn3)c2)s1', 9),
  ('CC#CCOc1cc(C(=O)N[C@H](C)c2cnc(C(F)(F)F)nc2)cc(-c2ncc(C)s2)c1', 16),
  ('C[C@@H](NC(=O)c1cc(OC2CCOCC2)cc(-c2ncc(Cl)s2)c1)c1ccc(C(F)(F)F)nn1', 21),
  ('Cc1cnc(-c2cc(OC[C@@H]3CCOC3)cc(C(=O)NC(C)c3ncc(Cl)cc3F)c2)s1 (stereo partly shown)', 6),
  ('Cc1ccc([C@@H](C)NC(=O)c2cc(OC[C@@H]3CCOC3)cc(-c3ncc(C(C)C)s3)c2)nn1', 81),
  ('C#CCOc1cc(C(=O)N[C@H](C)c2ccc(C)nc2)cc(-c2ncc(C)s2)c1', 29);

1: Cc1cnc(-c2cc(OC[C@@H]3CCCO3)cc(C(=O)N[C@H](C)c3ccc(C(F)(F)F)nn3)c2)s1
2: Cc1ccc(CNC(=O)c2cc(OC[C@@H]3CCOC3)cc(-c3ncc(C)s3)c2)nn1
Input: Please indicate which item has the smaller measured IC50: 1 versus 2 I would appreciate it if you answered with the label of your choice.
Output: 1

---

# tested_on: CYP3A4 (Homo sapiens (Human))
# Sequence (P08684 whole entry): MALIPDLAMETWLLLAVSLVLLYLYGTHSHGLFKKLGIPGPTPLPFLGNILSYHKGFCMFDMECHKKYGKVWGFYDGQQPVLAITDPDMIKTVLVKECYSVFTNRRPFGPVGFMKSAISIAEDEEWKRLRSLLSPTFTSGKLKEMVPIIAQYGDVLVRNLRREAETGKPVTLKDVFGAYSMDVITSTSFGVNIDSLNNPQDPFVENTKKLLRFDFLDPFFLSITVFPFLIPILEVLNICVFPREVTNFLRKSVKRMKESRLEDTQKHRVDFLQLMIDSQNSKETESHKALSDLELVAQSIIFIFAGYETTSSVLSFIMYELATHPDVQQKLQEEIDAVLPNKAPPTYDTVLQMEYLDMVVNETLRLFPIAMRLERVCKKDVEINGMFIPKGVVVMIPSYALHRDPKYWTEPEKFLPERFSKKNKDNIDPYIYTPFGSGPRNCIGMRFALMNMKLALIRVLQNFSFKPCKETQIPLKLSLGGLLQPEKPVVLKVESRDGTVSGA
# protocol_summary: CYP inhibition assay, CYP3A4
# Format: in vitro ADME
# condition_description: human liver microsomes, probe midazolam
pIC50: −log10 of the molar value.
endpoint_label: pIC50

Input: // returns reported pIC50 for input Cc1cnc(-c2cc(OC(C)C(C)O)cc(C(=O)N[C@H](C)c3cnc(C(F)(F)F)nc3)c2)s1 (single isomer, unassigned)
Output: < 4.70

---

# tested_on: human P2X2/3 receptor (Homo sapiens (Human), UniProt P56373+Q9UBL9)
# Sequence (P56373 whole entry): as the sequence (P56373 whole entry) above
# Sequence (Q9UBL9 whole entry): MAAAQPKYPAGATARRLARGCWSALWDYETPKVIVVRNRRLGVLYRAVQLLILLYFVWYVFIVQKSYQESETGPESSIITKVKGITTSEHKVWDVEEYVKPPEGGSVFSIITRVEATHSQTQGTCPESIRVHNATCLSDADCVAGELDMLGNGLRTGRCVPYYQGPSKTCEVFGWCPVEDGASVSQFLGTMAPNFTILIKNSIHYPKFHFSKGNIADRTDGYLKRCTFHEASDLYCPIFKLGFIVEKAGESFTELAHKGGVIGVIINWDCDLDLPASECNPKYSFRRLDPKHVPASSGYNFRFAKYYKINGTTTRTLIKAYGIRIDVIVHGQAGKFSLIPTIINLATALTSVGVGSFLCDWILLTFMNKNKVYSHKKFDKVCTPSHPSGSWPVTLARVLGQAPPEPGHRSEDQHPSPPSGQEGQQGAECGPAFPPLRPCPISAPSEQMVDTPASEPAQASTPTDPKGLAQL
# protocol_summary: Intracellular calcium measurement (FLIPR, Fluo-4) of antagonist activity at human P2X2/3 receptors
# Type: cell-based
# condition_description: human P2X2/3, FLIPR calcium assay, agonist α,β-Me-ATP; read-out: hP2X2/3 IC50
pIC50: −log10 of the molar value.
endpoint_label: pIC50

Answered examples (2):
INSERT INTO measurements (molecule, tested_on, reported_value) VALUES
  ('Cc1ccc([C@@H](C)NC(=O)c2cc(OC3CCOCC3)cc(-c3ncc(Cl)s3)c2)nn1', 'human P2X2/3 receptor (Homo sapiens (Human), UniProt P56373+Q9UBL9)', 6.63),
  ('Cc1cnc(-c2cc(OCC3CNCCO3)cc(C(=O)N[C@H](C)c3cnc(C(F)(F)F)nc3)c2)s1 (stereo partly shown)', 'human P2X2/3 receptor (Homo sapiens (Human), UniProt P56373+Q9UBL9)', 5.94);

a: CCOC(=O)N1CCC(Oc2cc(C(=O)N[C@H](C)c3cnc(C(F)(F)F)nc3)cc(-c3ncc(C)s3)c2)CC1
b: CC[C@@H](NC(=O)c1cc(O[C@@H]2CCOC2)cc(-c2ncc(C)s2)c1)c1cnc(C(F)(F)F)nc1
Input: Please indicate which item has the smaller measured pIC50: a versus b I would appreciate it if you answered with the label of your choice.
Output: b
(b: 6.01, a: 6.79)
